The measurements presented in this section are drawn from patent US20220356245A1.

Target Under Test: T1, hu-sCD47-6His; extracellular domain of human CD47 antigen with 6His-tag (human)
T1 construct: also called hCD47-his; soluble hCD47
Method Description: SPR Biacore

{"Binder": "h22-VH3-VL3 (candidate 22.11) (antibody, human IgG4 S228P, kappa, V domains shown, hIgG4-S228P/kappa) VH: QVQLQESGAEVKKPGASVKVSCKASGYTFTTYWMHWVRQAPGQGLEWMGMIHPNSGTTNYNEKFKSRVTMTRDTSTSTVYMELSSLRSEDTAVYYCTRSHYYDGHFSYWGQGTLVTVSS VL: EIVLTQSPDSLAVSLGERATINCKSSQSLLNSRTRKNYLAWYQQKAGQSPKLLIYWASTRESGVPDRFSGSGSGTDFTLTIDSLQAEDVAVYYCKQSYNLWTFGGGTKVEIKR", "kon / M⁻¹ s⁻¹": 28400}
{"Binder": "h22-VH4-VL4 (candidate 22.16) (antibody, human IgG4 S228P, kappa, V domains shown, hIgG4-S228P/kappa) VH: QVQLVQSGAEVKKPGASVKVSCKGSGYTFTTYWMHWVRQAPGQGLEWMGMIHPNSGTTNYNEKFKSRVTLTRDTSISTAYMELSRLTSDDTAVYYCTRSHYYDGHFSYWGQGTMVTVSS VL: DIVMTQSPDSLPVSLGERATINCKSSQSLLNSRTRKNYLAWYQQKPGQPPKLLIYWASTRESGVPDRFTGSGSGTDFTLTISALQAEDVAVYYCKQSYNLWTFGQGTRLEIKR", "kon / M⁻¹ s⁻¹": 28200}
{"Binder": "h22-VH3-VL4 (candidate 22.12) (antibody, human IgG4 S228P, kappa, V domains shown, hIgG4-S228P/kappa) VH: QVQLQESGAEVKKPGASVKVSCKASGYTFTTYWMHWVRQAPGQGLEWMGMIHPNSGTTNYNEKFKSRVTMTRDTSTSTVYMELSSLRSEDTAVYYCTRSHYYDGHFSYWGQGTLVTVSS VL: DIVMTQSPDSLPVSLGERATINCKSSQSLLNSRTRKNYLAWYQQKPGQPPKLLIYWASTRESGVPDRFTGSGSGTDFTLTISALQAEDVAVYYCKQSYNLWTFGQGTRLEIKR", "kon / M⁻¹ s⁻¹": 25200}
{"Binder": "hIgG4 chimeric candidate 22 (mouse VH/VL, human Fcγ4-S228P and human Kappa backbone) (antibody, V domains shown, hIgG4-S228P/kappa; also called Chim; 22) VH: QVQLQQPGAELVKPGASVKLSCKASGYTFTTYWMHWVKQRPGQGLEWIGMIHPNSGTTNYNEKFKSKATLTVDKSSSSTYMQLSSLTSEDSAVYYCTRSHYYDGHFSYWGQGTLVTVSA VL: DIVMSQSPSSLAVSAGEKVTMSCKSSQSLLNSRTRKNYLAWYQQKPGQSPKLLIYWASTRESGVPDRFTGSGSGTDFTLTISSVQAEDLAVYYCKQSYNLWTFGGGTRLEIKR", "kon / M⁻¹ s⁻¹": 31200}
{"Binder": "h22-VH4-VL3 (candidate 22.15) (antibody, human IgG4 S228P, kappa, V domains shown, hIgG4-S228P/kappa) VH: QVQLVQSGAEVKKPGASVKVSCKGSGYTFTTYWMHWVRQAPGQGLEWMGMIHPNSGTTNYNEKFKSRVTLTRDTSISTAYMELSRLTSDDTAVYYCTRSHYYDGHFSYWGQGTMVTVSS VL: EIVLTQSPDSLAVSLGERATINCKSSQSLLNSRTRKNYLAWYQQKAGQSPKLLIYWASTRESGVPDRFSGSGSGTDFTLTIDSLQAEDVAVYYCKQSYNLWTFGGGTKVEIKR", "kon / M⁻¹ s⁻¹": 29100}
